Every entry's value here was drawn from ChEMBL document CHEMBL3992562.

# Tested System: Amine oxidase [flavin-containing] A (Homo sapiens, UniProt P21397)
# Sequence (P21397 whole entry): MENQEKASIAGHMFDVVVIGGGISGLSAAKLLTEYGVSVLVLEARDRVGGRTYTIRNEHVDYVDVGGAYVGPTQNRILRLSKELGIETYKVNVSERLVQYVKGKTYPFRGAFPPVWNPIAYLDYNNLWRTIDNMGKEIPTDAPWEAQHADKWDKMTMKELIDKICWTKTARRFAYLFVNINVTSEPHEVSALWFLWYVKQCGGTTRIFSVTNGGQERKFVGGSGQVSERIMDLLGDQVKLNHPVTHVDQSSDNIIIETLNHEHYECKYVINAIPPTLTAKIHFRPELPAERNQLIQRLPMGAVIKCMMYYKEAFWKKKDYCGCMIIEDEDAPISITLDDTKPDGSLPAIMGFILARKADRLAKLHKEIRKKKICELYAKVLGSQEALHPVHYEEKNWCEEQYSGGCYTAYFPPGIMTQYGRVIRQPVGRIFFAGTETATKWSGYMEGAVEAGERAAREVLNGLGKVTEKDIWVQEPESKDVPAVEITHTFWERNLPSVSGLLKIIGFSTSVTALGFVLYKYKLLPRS
# Run Description: Inhibition of recombinant human MAO-A expressed in baculovirus infected BTI insect cells using kynuramine as substrate after 30 mins by fluorimetric method
Give measured pIC50 for each item. Keep answers brief.
By convention, pIC50 is the negative base-10 log of a molar concentration.

### Prompt Requested field: pIC50. Item: CCN(CCCOc1cc(O)c2c(=O)c3ccccc3sc2c1)Cc1ccccc1
### Response 4.88

### Prompt Now the compound CCN(CCCCCCOc1cc(O)c2c(=O)c3ccccc3sc2c1)Cc1ccccc1
### Response 5.84

### Prompt Now the compound CN(CCCCCCOc1cc(O)c2c(=O)c3ccccc3sc2c1)Cc1ccccc1
### Response 6.24

### Prompt Now the compound CCN(CCCOc1cc(O)c2c(=O)c3ccccc3sc2c1)Cc1ccc(N(C)C)cc1
### Response 5.55

### Prompt Now the compound COc1ccccc1CN(C)CCCOc1cc(O)c2c(=O)c3ccccc3sc2c1
### Response 5.20
